# tested system: human plasma-derived FX (Haematologic Technologies Inc, USA) (human, UniProt P00742 41-179; P00742 183-488)
# Sequence (P00742 41-179, chain 1 of 2): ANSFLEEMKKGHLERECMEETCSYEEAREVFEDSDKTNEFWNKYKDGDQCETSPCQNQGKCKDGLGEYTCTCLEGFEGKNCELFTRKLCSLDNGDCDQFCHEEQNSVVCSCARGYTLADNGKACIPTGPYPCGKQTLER
# Sequence (P00742 183-488, chain 2 of 2): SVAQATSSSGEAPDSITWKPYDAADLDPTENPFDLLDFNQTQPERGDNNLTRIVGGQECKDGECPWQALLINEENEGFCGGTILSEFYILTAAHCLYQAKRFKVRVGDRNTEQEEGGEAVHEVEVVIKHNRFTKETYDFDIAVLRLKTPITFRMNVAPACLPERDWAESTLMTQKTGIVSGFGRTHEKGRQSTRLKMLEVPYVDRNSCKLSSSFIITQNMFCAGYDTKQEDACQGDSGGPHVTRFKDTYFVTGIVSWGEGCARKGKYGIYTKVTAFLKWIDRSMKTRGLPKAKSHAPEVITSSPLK
# assay method text: cell-based or functional assay
parameter measured: KM (nM) of FX activation by 0.1 nM FIXa on phospholipid vesicles with 5 nM compound

{"columns": ["binder", "number"],
 "data": [
  ["Cmpd #21 (anti-FX/anti-FIX(a) VHH polypeptide derivative) (bispecific antibody, C16 diacid protractor (P2) via linker LP1 on Cys4 and Cys6 in C-term extension (SEQ ID NO: 9)) DVQLVESGGGVVQPGGSLQLSCAASGGTKSRYAMGWFRQAPGQEREFVAAISRRGGSTNYADSVKGRFTISRDNSKNTVYLDMDDLRPEDTALYYCAADDSVGDGYLDYWGQGTLVTVSSGQAPGQEVQLVESGGGVVQPGGSLQLSCAASGRTFNIYTMSWFRQDPGQEREFVAGLRWTDSSTEYADSVKGRFTISRDNSKNTVYLQMDSLRPEDTALYYCAADRSFLFAQALGATKNYEYWGQGTLVTVSSGQACPC", 3.9]
]}

Reference source for all entries: patent US20240067944A1
